# reported growth inhibition; entries follow
test_name: NCI Yeast Anticancer Drug Screen. Data for the rad50 strain (AID 155);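 further: 0% = growth of vehicle-only cultures of the same strain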
condition_parameters: S. cerevisiae rad50 strain growth inhibition; at 50.0 µM; active compounds read high
Compounds without any hit were thinned out: in the full panel of roughly 79,000, 15% have a hit.
Write down the numeric answer in % and omit the unit.

INPUT: For Cc1cc(C)c(C)c(CC(C)(CI)CI)c1C , write its growth inhibition.
OUTPUT: 20.3

New cases:
INPUT: Please report growth inhibition for the following compound: O=C1CC2CCCC23CC2(CCN13)OCCO2 (stereo not drawn)
OUTPUT: -3.15

INPUT: Note growth inhibition for the compound shown: CC(=O)Nc1cc2ccccc2c(Br)n1
OUTPUT: -14.9

INPUT: Return reported growth inhibition. Input compound: C/C(=C/OS(=O)(=O)C(F)(F)F)c1ccccc1
OUTPUT: -22.3

----------
growth inhibition overview
test_name: NCI Yeast Anticancer Drug Screen. Data for the mlh1 rad18 strain (AID 175)
condition_parameters: S. cerevisiae mlh1 rad18 strain growth inhibition; at 50.0 µM; active compounds read high
The panel holds about 79,000 compounds, 15% with a hit somewhere; the sample as a whole holds those more often.
Dear colleague, please return just the value in %, with no unit written.

Below are worked cases with known answers.
INPUT: For the compound O=C(CN1C(=O)c2ccccc2C1=O)NCC(=O)N(C(=O)NC1CCCCC1)C1CCCCC1 , give its reported growth inhibition.
OUTPUT: 5

INPUT: Supply reported growth inhibition belonging to this compound: N#Cc1cc2ccccc2n(Cc2ccccc2)c1=O
OUTPUT: -9.55

INPUT: Kindly indicate its recorded growth inhibition. Item: COc1ccccc1Nc1nc(NNC(=O)Cc2ccccc2)nc(NNC(=O)c2ccncc2)n1
OUTPUT: 25.6

INPUT: Provide growth inhibition value for the following compound: Cc1nc2c(ccc3cc4ccccc4cc32)cc1N(CCO)CCO
OUTPUT: 18.1

INPUT: Retrieve growth inhibition measured for O=C(COC(=O)c1ccccc1)c1ccc(-c2ccccc2)cc1 and print it.
OUTPUT: 11.7

Continuing:
INPUT: Fill in growth inhibition for record CCOC(=O)C1CC(C)CC1=O (configuration not stated)
OUTPUT: 0.2

INPUT: Identify growth inhibition associated with the compound CC(=O)NC(CCCCNC(=O)OC(C)(C)C)C(=O)O (configuration not stated)
OUTPUT: -39.1

INPUT: Annotate the compound Cc1cc2nn(C3CCCCO3)nc2cc1C (configuration not stated) with its measured growth inhibition.
OUTPUT: -46.8

INPUT: Indicate its recorded growth inhibition; the compound in question is CC(=O)C(N)C(C)C (configuration not stated)
OUTPUT: 7.95

INPUT: Give growth inhibition for the following compound: CNC1C(=O)C(C)C(O)(C(CC(C)C(O)/C=C/C=C/CNC(=O)C(C)(C)C(O)\C(C)=C/C=C\C=C\Cc2cnc(C)o2)OC)C12C(=O)OC2COC (configuration not stated) (tested in a mixture with another compound)
OUTPUT: 6.35

INPUT: Hello, please tell me recorded growth inhibition for this one: OCCCNCc1ccncc1
OUTPUT: -3.55

----------
# growth inhibition listing for each entry below
test_name: NCI Yeast Anticancer Drug Screen. Data for the bub3 strain (AID 167)
condition_parameters: S. cerevisiae bub3 mutant strain, at 50.0 µM, active compounds read high
Compounds without any hit were thinned out: in the full panel of roughly 79,000, 15% have a hit.
Please reply with the bare figure in % and do not write the unit itself.

Worked examples follow.
INPUT: Return reported growth inhibition. Input compound: O=C1c2ccccc2-c2ccc(N3C(=O)c4c(Br)c(Br)c(Br)c(Br)c4C3=O)cc21
OUTPUT: -4.6

INPUT: Please report the measured growth inhibition for CSCCC(NC(=O)c1ccccc1)C(=O)O (stereo not drawn)
OUTPUT: 3.3

INPUT: Give a short answer stating reported growth inhibition for OCC(O)COc1ccc(OCc2ccccc2)cc1 (stereo not drawn) .
OUTPUT: -5.05

INPUT: Look up and state reported growth inhibition for CCC[C@H](C)[C@H]1NC(=O)[C@@H](NC(=O)[C@@H](CC(C)C)N(C)C(=O)C2CCCN2C(=O)[C@H](C)O)[C@@H](C)OC(=O)[C@H](CC(C)C)N(C)C(=O)[C@@H]2CCCN2C(=O)[C@H](CC(C)C)NC(=O)[C@@H](C)C(=O)[C@H](C(C)C)OC(=O)C[C@@H]1O (stereo partly drawn)
OUTPUT: -20.9

INPUT: Annotate the compound O=C1CN(Cc2ccccc2)CCO1 with its measured growth inhibition.
OUTPUT: 10.5

Continuing:
INPUT: Output measured growth inhibition for this item: O=C(Nc1ccc(NC(=O)Nc2ccc(C3=NCCN3)cc2)cc1)Nc1ccc(C2=NCCN2)cc1
OUTPUT: -21.1

INPUT: Kindly indicate its recorded growth inhibition. Item: Cc1cc(NC(C)C)c(C)cc1NC(C)C
OUTPUT: 33.5

INPUT: Tell me growth inhibition reported for COC(=O)C1(C(=O)OC)C/C(C)=C(/C)SCCCS1
OUTPUT: -23.1

INPUT: Return growth inhibition (reported value) for this compound: C=CCC12CC(C)OC1=Nc1ccccc1NC2=O (stereo not drawn)
OUTPUT: 7.2

INPUT: Query growth inhibition for CCOc1ccc(N=C=S)cc1
OUTPUT: 18.9

INPUT: Determine its reported growth inhibition: Oc1cc2cc(-c3ccccc3)[nH]c2c2ccccc12
OUTPUT: -2.1

INPUT: Please report growth inhibition for the following compound: COc1cccc2cc[nH]c12
OUTPUT: 7.7

INPUT: Look up and report measured growth inhibition for this entry: COc1ccc(C#CCC(OC2OC(CO)C(O)C(O)C2O)C(O)c2ccc(OC)c(OC)c2)cc1OC (stereo not drawn)
OUTPUT: -17.2

INPUT: Tell me growth inhibition reported for Cn1c(=O)c(Cl)c(N=[N+]=[N-])c2ccccc21
OUTPUT: 22

INPUT: Specify growth inhibition for Cc1cc2c(cc1C)NC(=O)CC(c1ccccc1)=N2 and stop.
OUTPUT: 28.9

INPUT: Fill in reported growth inhibition for this entry: COc1ccc(-n2c(C)nc3c(cnn3C3OC(CO)C(O)C3O)c2=O)cc1 (stereo not drawn)
OUTPUT: -1.9

INPUT: Input O=C(O)CCSc1nc2ccccc2s1 , output reported growth inhibition.
OUTPUT: -14.2

INPUT: Note growth inhibition for the compound shown: COC(=O)C(C(=O)C(N)=O)c1csc(-n2nc(-c3ccccc3)cc2-c2ccccc2)n1 (stereo not drawn)
OUTPUT: 30.2

INPUT: Supply reported growth inhibition belonging to this compound: C=C(NC(C)=O)C(=O)CCC(N)=O
OUTPUT: 4.75

INPUT: Look up and report measured growth inhibition for this entry: CCCCN(CCCC)CC(O)c1cc(-c2cccc(I)c2)nc2c(Cl)cc(Cl)cc12 (stereo not drawn)
OUTPUT: -6.15
